Tested on: human T-lymphocyte cells (CEM)
Measurement Notes: Antiproliferative
Assay type: cell-based
Recorded Conditions: 72 h, read-out: IC50 CEM

Compound: CC(=O)OC[C@H]1O[C@@H](NC(=O)NC(=O)COc2ccc(-c3ccccc3)cc2)[C@H](OC(C)=O)[C@@H](OC(C)=O)[C@@H]1OC(C)=O [Compound 6c]
Experimental System: human T-lymphocyte cells (CEM)
Readout Units: µM
Bound Type: >
IC50: 250

Compound: CC(=O)OC[C@H]1O[C@@H](NC(=O)NC(=O)CCCc2ccc3c(c2)CCCC3)[C@H](OC(C)=O)[C@@H](OC(C)=O)[C@@H]1OC(C)=O [Compound 6b]
Experimental System: human T-lymphocyte cells (CEM)
Readout Units: µM
Bound Type: =
IC50: 38

Compound: O=C(COc1ccc(-c2ccccc2)cc1)NC(=O)N[C@@H]1O[C@H](CO)[C@@H](O)[C@H](O)[C@H]1O [Compound 7c]
Experimental System: human T-lymphocyte cells (CEM)
Readout Units: µM
Bound Type: =
IC50: 24

Compound: O=c1[nH]cc(F)c(=O)[nH]1 [5-Fluorouracil, reference compound]
Experimental System: human T-lymphocyte cells (CEM)
Readout Units: µM
Bound Type: =
IC50: 18

Compound: Sc1ncnc2nc[nH]c12 [6-Mercaptopurine, reference compound]
Experimental System: human T-lymphocyte cells (CEM)
Readout Units: µM
Bound Type: =
IC50: 2.8

Compound: O=C(CCCc1ccc2c(c1)CCCC2)NC(=O)N[C@@H]1O[C@H](CO)[C@@H](O)[C@H](O)[C@H]1O [Compound 7b]
Experimental System: human T-lymphocyte cells (CEM)
Readout Units: µM
Bound Type: >
IC50: 250

###

Tested on: murine leukemia cells (L1210)
Measurement Notes: Antiproliferative
Type: cell-based
Recorded Conditions: Mus musculus, L1210, 48 h, read-out: IC50 L1210
Below, each entry is listed alongside its reported IC50.
Quantity Kind: IC50 (µM)

Compound: CC(=O)OC[C@H]1O[C@@H](NC(=O)NC(=O)COc2ccc(-c3ccccc3)cc2)[C@H](OC(C)=O)[C@@H](OC(C)=O)[C@@H]1OC(C)=O
Quantity Kind: IC50
Bound Type: >
Result: 250

Compound: O=c1[nH]cc(F)c(=O)[nH]1 [5-Fluorouracil, reference compound]
Quantity Kind: IC50
Bound Type: =
Result: 0.33

Compound: CC(=O)OC[C@H]1O[C@@H](NC(=O)NC(=O)CCCc2ccc3c(c2)CCCC3)[C@H](OC(C)=O)[C@@H](OC(C)=O)[C@@H]1OC(C)=O
Quantity Kind: IC50
Bound Type: =
Result: 78

Compound: O=C(COc1ccc(-c2ccccc2)cc1)NC(=O)N[C@@H]1O[C@H](CO)[C@@H](O)[C@H](O)[C@H]1O
Quantity Kind: IC50
Bound Type: =
Result: 9

Compound: O=C(CCCc1ccc2c(c1)CCCC2)NC(=O)N[C@@H]1O[C@H](CO)[C@@H](O)[C@H](O)[C@H]1O
Quantity Kind: IC50
Bound Type: >
Result: 250

Compound: Sc1ncnc2nc[nH]c12 [6-Mercaptopurine, reference compound]
Quantity Kind: IC50
Bound Type: =
Result: 2.8

###

Tested on: human cervix carcinoma cells (HeLa)
Measurement Notes: Antiproliferative
Format: cell-based
Recorded Conditions: 96 h, read-out: IC50 HeLa
Below, each entry is listed alongside its reported IC50.

Compound: CC(=O)OC[C@H]1O[C@@H](NC(=O)NC(=O)CCCc2ccc3c(c2)CCCC3)[C@H](OC(C)=O)[C@@H](OC(C)=O)[C@@H]1OC(C)=O
Experimental System: human cervix carcinoma cells (HeLa)
Bound Type: =
IC50 (µM): 66

Compound: O=C(CCCc1ccc2c(c1)CCCC2)NC(=O)N[C@@H]1O[C@H](CO)[C@@H](O)[C@H](O)[C@H]1O
Experimental System: human cervix carcinoma cells (HeLa)
Bound Type: >
IC50 (µM): 250

Compound: CC(=O)OC[C@H]1O[C@@H](NC(=O)NC(=O)COc2ccc(-c3ccccc3)cc2)[C@H](OC(C)=O)[C@@H](OC(C)=O)[C@@H]1OC(C)=O
Experimental System: human cervix carcinoma cells (HeLa)
Bound Type: >
IC50 (µM): 250

Compound: O=c1[nH]cc(F)c(=O)[nH]1 [5-Fluorouracil, reference compound]
Experimental System: human cervix carcinoma cells (HeLa)
Bound Type: =
IC50 (µM): 0.54

Compound: O=C(COc1ccc(-c2ccccc2)cc1)NC(=O)N[C@@H]1O[C@H](CO)[C@@H](O)[C@H](O)[C@H]1O
Experimental System: human cervix carcinoma cells (HeLa)
Bound Type: =
IC50 (µM): 19

Compound: Sc1ncnc2nc[nH]c12 [6-Mercaptopurine, reference compound]
Experimental System: human cervix carcinoma cells (HeLa)
Bound Type: =
IC50 (µM): 1.1
